- Assay Explanation: Metabolic stability in human liver microsomes (microsomal clearance)
- Assay type: in vitro ADME
- Cond: pH 7.4; human liver microsomes 0.25 mg protein/mL, 0.5 μM compound, NADPH, 37° C.; read-out: mClint
Task for the reader: assign each of the following molecules its reported microsomal CLint at 0.5 μM.

Short answer for O=C(O)C1CCCN(c2cccc3cc(S(=O)(=O)c4cccc(C(F)(F)F)c4)cnc23)C1 (centres unmarked) : microsomal CLint at 0.5 μM was < 30 µL/min/mg

Short answer for O=C(O)C1CCN(c2cccc3cc(S(=O)(=O)c4cccc(N5CCCC5)c4)cnc23)CC1 : microsomal CLint at 0.5 μM was 30 to 60 µL/min/mg

Short answer for O=S(=O)(c1ccccc1)c1cnc2c(N3C[C@@H](O)[C@@H](O)C3)cccc2c1 : microsomal CLint at 0.5 μM was < 30 µL/min/mg

Short answer for O=S(=O)(c1cccc(OC(F)F)c1)c1cnc2c(N3CCC(O)CC3)cccc2c1 : microsomal CLint at 0.5 μM was < 30 µL/min/mg

Short answer for O=S(=O)(c1cccc(F)c1)c1cnc2c(N3CC[C@@H](O)C3)cccc2c1 : microsomal CLint at 0.5 μM was 30 to 60 µL/min/mg

Short answer for O=S(=O)(c1cccc(N2CCC(O)CC2)c1)c1cnc2c(N3CCC(O)CC3)cccc2c1 : microsomal CLint at 0.5 μM was 30 to 60 µL/min/mg

Short answer for O=S(=O)(c1ccccc1)c1cnc2c(N3CCC[C@@H](O)C3)cccc2c1 : microsomal CLint at 0.5 μM was 30 to 60 µL/min/mg

Short answer for O=S(=O)(c1cccc(F)c1)c1cnc2c(N3CCC(O)CC3)cccc2c1 : microsomal CLint at 0.5 μM was < 30 µL/min/mg

Short answer for COc1ccccc1S(=O)(=O)c1cnc2c(N3CC(O)C3)cccc2c1 : microsomal CLint at 0.5 μM was 60 to 120 µL/min/mg

Short answer for O=S(=O)(c1ccccc1)c1cnc2c(N3C[C@H](O)C[C@H](O)C3)cccc2c1 : microsomal CLint at 0.5 μM was < 30 µL/min/mg

Short answer for O=C(O)C1CN(c2cccc3cc(S(=O)(=O)c4cccc(C(F)(F)F)c4)cnc23)C1 : microsomal CLint at 0.5 μM was < 30 µL/min/mg

Short answer for Cc1cccc(S(=O)(=O)c2cnc3c(N4CCC(C(=O)O)CC4)cccc3c2)c1 : microsomal CLint at 0.5 μM was < 30 µL/min/mg

Short answer for O=S(=O)(c1ccccc1)c1cnc2c(N3CC[C@@H](O)[C@@H](O)C3)cccc2c1 : microsomal CLint at 0.5 μM was < 30 µL/min/mg

Short answer for O=C(O)CC1CCN(c2cccc3cc(S(=O)(=O)c4cccc(C(F)(F)F)c4)cnc23)CC1 : microsomal CLint at 0.5 μM was < 30 µL/min/mg

Short answer for O=C(O)C1CCN(c2cccc3cc(S(=O)(=O)c4cccc(C(F)(F)F)c4)cnc23)CC1 : microsomal CLint at 0.5 μM was < 30 µL/min/mg

Short answer for O=S(=O)(c1cccc(C(F)(F)F)c1)c1cnc2c(N3CC(O)C3)cccc2c1 : microsomal CLint at 0.5 μM was 30 to 60 µL/min/mg

Short answer for O=S(=O)(c1cccc(F)c1)c1cnc2c(N3CCC[C@H](O)C3)cccc2c1 : microsomal CLint at 0.5 μM was 30 to 60 µL/min/mg

====

Task for the reader: assign each of the following molecules its reported microsomal CLint at 0.5 μM.
- Assay Explanation: Metabolic stability in human liver microsomes (microsomal clearance)
- Format: in vitro ADME
- Cond: pH 7.4; human liver microsomes 0.25 mg protein/mL, 0.5 μM compound, NADPH, 37° C.; read-out: mClint

Short answer for O=S(=O)(c1cccc(C(F)(F)F)c1)c1cnc2c(N3CCC[C@@H](O)C3)cccc2c1 : microsomal CLint at 0.5 μM was 60 to 120 µL/min/mg

Short answer for O=C(O)CC1CCCN(c2cccc3cc(S(=O)(=O)c4cccc(C(F)(F)F)c4)cnc23)C1 (stereo not shown) : microsomal CLint at 0.5 μM was 30 to 60 µL/min/mg

Short answer for O=S(=O)(c1ccccc1)c1cnc2c(N3C[C@H](O)[C@@H](O)C3)cccc2c1 : microsomal CLint at 0.5 μM was 30 to 60 µL/min/mg

Short answer for COc1ccccc1S(=O)(=O)c1cnc2c(N3CCC(O)CC3)cccc2c1 : microsomal CLint at 0.5 μM was 60 to 120 µL/min/mg

====

- Assay Explanation: Metabolic stability in human liver microsomes (microsomal clearance)
- Assay type: in vitro ADME
- Cond: pH 7.4; human liver microsomes 0.25 mg protein/mL, 0.5 μM compound, NADPH, 37° C.; read-out: mClint
Where a name gives a salt, the structure may show the parent alone.
Task for the reader: assign each of the following compounds its reported microsomal CLint at 0.5 μM.

Short answer for O=S(=O)(c1ccccc1)c1cnc2c(N3C[C@@H](O)[C@H](O)C3)cccc2c1 : microsomal CLint at 0.5 μM was < 30 µL/min/mg

Short answer for O=C(O)c1cccc(S(=O)(=O)c2cnc3c(N4CCC(C(=O)O)CC4)cccc3c2)c1 : microsomal CLint at 0.5 μM was < 30 µL/min/mg

Short answer for O=C(O)[C@@H]1CCN(c2cccc3cc(S(=O)(=O)c4cccc(C(F)(F)F)c4)cnc23)C1 : microsomal CLint at 0.5 μM was < 30 µL/min/mg

Short answer for COC1CCN(c2cccc(S(=O)(=O)c3cnc4c(N5CCC(C(=O)O)CC5)cccc4c3)c2)C1 (centres unmarked) : microsomal CLint at 0.5 μM was < 30 µL/min/mg

Short answer for CC1(O)CCN(c2cccc3cc(S(=O)(=O)c4cccc(C(F)(F)F)c4)cnc23)CC1 [Example 7, Hydrochloride] : microsomal CLint at 0.5 μM was 60 to 120 µL/min/mg

Short answer for O=S(=O)(c1cccc(C(F)(F)F)c1)c1cnc2c(N3CC[C@@H](O)C3)cccc2c1 : microsomal CLint at 0.5 μM was 30 to 60 µL/min/mg

Short answer for O=C(O)C1CCN(c2cccc3cc(S(=O)(=O)c4cccc(OC(F)F)c4)cnc23)CC1 : microsomal CLint at 0.5 μM was < 30 µL/min/mg

Short answer for O=C(O)C1CCN(c2cccc3cc(S(=O)(=O)c4cccc(F)c4)cnc23)CC1 : microsomal CLint at 0.5 μM was 30 to 60 µL/min/mg

Short answer for CN1CCN(c2cccc(S(=O)(=O)c3cnc4c(N5CCC(C(=O)O)CC5)cccc4c3)c2)CC1 : microsomal CLint at 0.5 μM was < 30 µL/min/mg

Short answer for O=S(=O)(c1cccc(N2CCC(O)CC2)c1)c1cnc2c(F)cccc2c1 : microsomal CLint at 0.5 μM was 60 to 120 µL/min/mg

Short answer for COc1cccc(S(=O)(=O)c2cnc3c(N4CCC(O)CC4)cccc3c2)c1 : microsomal CLint at 0.5 μM was 60 to 120 µL/min/mg

Short answer for O=S(=O)(c1cccc(F)c1)c1cnc2c(N3CC(O)C3)cccc2c1 : microsomal CLint at 0.5 μM was 30 to 60 µL/min/mg

Short answer for O=C(O)C1CCN(c2cccc3cc(S(=O)(=O)c4ccccc4)cnc23)CC1 : microsomal CLint at 0.5 μM was < 30 µL/min/mg

Short answer for O=S(=O)(c1ccccc1)c1cnc2c(N3CCC[C@H](O)C3)cccc2c1 : microsomal CLint at 0.5 μM was 30 to 60 µL/min/mg

Short answer for O=S(=O)(c1cccc(C(F)(F)F)c1)c1cnc2c(N3CCC(O)C3)cccc2c1 (centres unmarked) : microsomal CLint at 0.5 μM was 60 to 120 µL/min/mg

Short answer for COc1cccc(S(=O)(=O)c2cnc3c(N4CCC(C(=O)O)CC4)cccc3c2)c1 : microsomal CLint at 0.5 μM was < 30 µL/min/mg

Short answer for N#Cc1cccc(S(=O)(=O)c2cnc3c(N4CCC(C(=O)O)CC4)cccc3c2)c1 : microsomal CLint at 0.5 μM was < 30 µL/min/mg

====

Task for the reader: assign each of the following compounds its reported microsomal CLint at 0.5 μM.
- Assay Explanation: Metabolic stability in human liver microsomes (microsomal clearance)
- Format: in vitro ADME
- Cond: pH 7.4; human liver microsomes 0.25 mg protein/mL, 0.5 μM compound, NADPH, 37° C.; read-out: mClint
- Protocol: Samples of the tested compounds (0.5 μM) were preincubated together with human liver microsomes (0.25 mg of microsomal protein/mL) in 0.05 M potassium phosphate buffer of pH 7.4 in microtiter plates at 37° C. for 5 minutes. The reaction was started by adding NADPH (1.0 mM). […] The samples were frozen until analyzed. The remaining concentration of undegraded test substance was determined by liquid chromatography-tandem mass spectrometry (LC-MS/MS). […]
Where a name gives a salt, the structure may show the parent alone.

Short answer for O=S(=O)(c1ccccc1)c1cnc2c(N3CC[C@H](O)C3)cccc2c1 : microsomal CLint at 0.5 μM was 60 to 120 µL/min/mg

Short answer for Cc1ccc(O)c(S(=O)(=O)c2cnc3c(N4CCC(O)CC4)cccc3c2)c1 : microsomal CLint at 0.5 μM was 30 to 60 µL/min/mg

Short answer for O=S(=O)(c1cccc(F)c1)c1cnc2c(N3CCC[C@@H](O)C3)cccc2c1 : microsomal CLint at 0.5 μM was 30 to 60 µL/min/mg

Short answer for O=S(=O)(c1cccc(C(F)(F)F)c1)c1cnc2c(N3CCC[C@H](O)C3)cccc2c1 [Example 4, Hydrochloride] : microsomal CLint at 0.5 μM was 60 to 120 µL/min/mg
